Data origin: patent US9688764B2

- Experimental Details: Conjugate characterization: protein and linker/payload concentrations, payload loading (UV, MALDI-TOF, SEC-HPLC, RP-HPLC)
- Format: physicochemical
- Conditions: Anti-PRLR-SMCC-DM1 conjugates; Table 9
# Payload:Antibody Molar Ratio (MS) per record follows
Measure Name: Payload:Antibody Molar Ratio (MS)

H1H6793P-DM1 (conjugate) VH: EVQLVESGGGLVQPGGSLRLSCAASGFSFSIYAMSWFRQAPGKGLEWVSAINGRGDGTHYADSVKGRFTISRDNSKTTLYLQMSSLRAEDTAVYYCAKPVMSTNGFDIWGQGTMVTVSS VL: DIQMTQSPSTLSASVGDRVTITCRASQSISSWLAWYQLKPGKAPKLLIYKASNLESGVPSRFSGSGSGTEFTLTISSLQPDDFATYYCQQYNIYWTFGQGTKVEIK ... 3.8
H1H6975P-DM1 (conjugate) VH: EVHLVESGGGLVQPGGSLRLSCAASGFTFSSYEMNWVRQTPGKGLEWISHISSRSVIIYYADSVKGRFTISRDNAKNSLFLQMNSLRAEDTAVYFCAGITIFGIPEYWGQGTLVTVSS VL: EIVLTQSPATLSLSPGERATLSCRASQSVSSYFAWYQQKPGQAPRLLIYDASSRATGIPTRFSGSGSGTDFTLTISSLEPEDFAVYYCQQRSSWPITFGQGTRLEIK ... 3.4
H1H6958N2-DM1: anti-PRLR antibody H1H6958N2 conjugated to DM1 through an SMCC linker (conjugate) VH: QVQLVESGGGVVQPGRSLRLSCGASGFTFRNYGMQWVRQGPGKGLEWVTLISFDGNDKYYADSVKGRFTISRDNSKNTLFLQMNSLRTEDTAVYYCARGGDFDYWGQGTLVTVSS VL: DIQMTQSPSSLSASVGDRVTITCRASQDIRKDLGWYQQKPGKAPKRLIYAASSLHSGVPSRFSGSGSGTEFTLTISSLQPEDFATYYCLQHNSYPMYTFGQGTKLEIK ... 3.4
H1H6959N2-DM1 (conjugate) VH: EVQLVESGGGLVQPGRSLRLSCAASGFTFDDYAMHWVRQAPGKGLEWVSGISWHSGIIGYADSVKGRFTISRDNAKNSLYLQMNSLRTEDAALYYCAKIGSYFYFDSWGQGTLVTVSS VL: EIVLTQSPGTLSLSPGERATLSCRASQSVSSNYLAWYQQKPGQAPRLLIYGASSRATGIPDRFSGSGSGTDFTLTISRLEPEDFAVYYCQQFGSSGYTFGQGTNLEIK ... 3.3
H1H6765P-DM1: anti-PRLR antibody H1H6765P conjugated to DM1 through an SMCC linker (conjugate) VH: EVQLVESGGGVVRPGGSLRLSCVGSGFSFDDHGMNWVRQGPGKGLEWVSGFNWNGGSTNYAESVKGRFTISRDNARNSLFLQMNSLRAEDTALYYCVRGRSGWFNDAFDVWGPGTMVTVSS VL: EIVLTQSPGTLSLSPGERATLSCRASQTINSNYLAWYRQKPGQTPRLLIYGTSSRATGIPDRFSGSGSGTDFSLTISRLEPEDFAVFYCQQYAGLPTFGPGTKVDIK ... 2.3
H1H6803P-DM1 (conjugate) VH: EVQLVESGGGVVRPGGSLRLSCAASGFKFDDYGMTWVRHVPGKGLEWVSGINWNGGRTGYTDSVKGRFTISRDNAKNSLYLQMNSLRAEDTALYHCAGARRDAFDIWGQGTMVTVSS VL: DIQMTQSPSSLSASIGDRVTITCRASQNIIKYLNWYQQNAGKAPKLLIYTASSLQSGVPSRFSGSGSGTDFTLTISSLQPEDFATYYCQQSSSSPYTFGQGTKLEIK ... 3.1
H1H6953N-DM1 (conjugate) VH: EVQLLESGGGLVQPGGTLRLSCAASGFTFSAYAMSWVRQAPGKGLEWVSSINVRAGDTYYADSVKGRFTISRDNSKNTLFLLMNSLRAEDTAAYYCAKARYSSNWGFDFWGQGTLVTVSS VL: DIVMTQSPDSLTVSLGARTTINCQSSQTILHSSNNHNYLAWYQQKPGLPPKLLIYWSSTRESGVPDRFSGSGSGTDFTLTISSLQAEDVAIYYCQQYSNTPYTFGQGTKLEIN ... 2.7
H1H6782P-DM1: anti-PRLR antibody H1H6782P conjugated to DM1 through an SMCC linker (conjugate) VH: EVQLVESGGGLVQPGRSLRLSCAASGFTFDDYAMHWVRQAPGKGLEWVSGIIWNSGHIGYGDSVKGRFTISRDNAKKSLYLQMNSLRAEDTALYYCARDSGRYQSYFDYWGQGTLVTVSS VL: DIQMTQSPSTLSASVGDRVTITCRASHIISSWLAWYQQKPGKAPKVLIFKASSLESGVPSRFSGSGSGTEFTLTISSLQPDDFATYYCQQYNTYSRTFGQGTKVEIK ... 2.8
H1H6960N-DM1 (conjugate) VH: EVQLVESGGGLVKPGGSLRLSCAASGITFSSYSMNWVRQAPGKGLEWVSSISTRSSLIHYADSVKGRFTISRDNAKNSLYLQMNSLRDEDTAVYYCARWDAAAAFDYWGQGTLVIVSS VL: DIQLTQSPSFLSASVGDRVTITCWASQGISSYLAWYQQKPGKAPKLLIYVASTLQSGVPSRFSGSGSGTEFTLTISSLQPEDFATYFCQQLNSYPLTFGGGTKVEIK ... 3.0
H1H6800P-DM1 (conjugate) VH: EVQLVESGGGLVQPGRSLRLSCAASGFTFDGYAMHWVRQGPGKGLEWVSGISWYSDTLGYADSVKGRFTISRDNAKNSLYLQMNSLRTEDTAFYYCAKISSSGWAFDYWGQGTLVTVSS VL: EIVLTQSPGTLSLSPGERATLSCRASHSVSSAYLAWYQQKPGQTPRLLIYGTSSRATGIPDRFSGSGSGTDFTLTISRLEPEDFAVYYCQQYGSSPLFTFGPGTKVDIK ... 3.2
H1H6762P-DM1 (conjugate) VH: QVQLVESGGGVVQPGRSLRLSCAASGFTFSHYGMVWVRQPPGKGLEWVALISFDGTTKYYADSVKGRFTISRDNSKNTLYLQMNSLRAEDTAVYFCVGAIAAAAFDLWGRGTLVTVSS VL: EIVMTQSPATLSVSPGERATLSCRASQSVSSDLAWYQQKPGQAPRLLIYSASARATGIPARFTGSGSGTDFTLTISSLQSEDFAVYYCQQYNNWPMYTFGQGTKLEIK ... 2.9
